From: PubChem BioAssay AID504413

- Test system: MEF A1-2A-BIM cells, caspase-3/7 Glo luminescence
- testMethodNotes: apoptosis induction in A1-BIM primed fibroblasts – cell-based, A1-2A-BIM MEF, luminescence, dry powder, A1 inhibitor project, dose response (AID 504413)
Results filed as inconclusive are left out.
measuredMetric: AC10

Field AC10 (entry Cc1ccc(Sc2c([N+](=O)[O-])c(=O)n(C)c3ccccc23)cc1 ) reads 7.28 µM

Field AC10 (entry Cn1c(=O)c([N+](=O)[O-])c(Cl)c2ccccc21 ) reads 2.6 µM

Field AC10 (entry Cc1ccc(S(=O)(=O)c2c([N+](=O)[O-])c(=O)n(C)c3ccccc23)cc1 ) reads 7.02 µM

Field AC10 (entry COCCn1c(=O)c([N+](=O)[O-])c(Cl)c2ccccc21 ) reads 1.9 µM

Field AC10 (entry Cn1c(=O)c([N+](=O)[O-])c(Sc2ccccn2)c2ccccc21 ) reads 3.78 µM
